All values here come from PubChem BioAssay (NCI).

Assay: NCI Yeast Anticancer Drug Screen. Data for the mlh1 rad18 strain (AID 175)
Conditions: S. cerevisiae mlh1 rad18 strain growth inhibition; at 50.0 µM
This is part of a sample that, as a whole, favours compounds with a hit. Of some 79,000 tested, about 15% had one in any assay. Calls of active or inactive are those of the source. No stated cut-off is given here; in the data, active means growth inhibition above about 70%; inactive means the rest.
Classes to choose from: 1 for active, -1 for inactive

Examples with answers:
INSERT INTO assay_data (molecule, class_assignment) VALUES
  ('O=C(O)CCc1cccc2c(=O)cc(-c3ccccc3)oc12', -1),
  ('CCN(CC)Cc1cc(C)c(O)c(N=Nc2ccc(-c3ccc(N)c(OC)c3)cc2OC)c1C', -1),
  ('COC(=O)C1C(O)C(C(=O)OC)C(C)N(C)C1C (stereo unspecified)', -1),
  ('Cc1cc(NS(=O)(=O)c2ccc(NC(=O)c3ccc(Cl)c4c(Nc5ccc(S(=O)(=O)N=C(N)N)cc5)c5ccccc5nc34)cc2)no1', -1),
  ('CSC1=C(c2ccc(Cl)cc2)SC(N2CCCCC2)N1c1ccc([N+](=O)[O-])cc1 (stereo unspecified)', -1),
  ('C(=C\c1ccc(/C=C/c2ccccc2)nn1)/c1ccccc1', -1);

Called result for CCOC(=O)c1c(SCCO)n(-c2ccccc2)c(=S)n(-c2ccccc2)c1=O
-1

Answer briefly: the call reported for O=c1cc(C=Nc2ccc(-c3csc(-c4ccccc4)n3)cc2)[nH]c(=S)[nH]1 in this assay.
1
